Each entry below carries its recorded AD38 Viability Normalized Result (cmpd/DMSO %) at 10 μM.
test system: AD38 cells; experiment: Viability of AD38 cells (Promega CellTiter-Glo); format: cell-based; conditions: 10 μM compound, 6 days, CellTiter-Glo luminescence normalized to DMSO control (100%)
Quick note: give the figure in %, leave out the unit.

# COMPOUND, REPORTED RESULT
records = [
    ("CC1c2ccc(C(=O)NCc3cncs3)cc2NC(=O)c2ccccc21 (stereo not drawn) [compound 1546]", 97),
]

Consider the record given below.
Query: What does the data say about its AD38 Viability Normalized Result (cmpd/DMSO %) at 10 μM? Entry: Cc1ncc(CNC(=O)c2ccc3c(c2)NC(=O)c2ccccc2C3C)s1 (stereo not drawn) [compound 1548]
Result: 97

---

Each entry below carries its recorded AD38 Viability Normalized Result (cmpd/DMSO %) at 10 μM.
test system: AD38 cells; test: Viability of AD38 cells (Promega CellTiter-Glo); format: cell-based; details: 10 μM compound, 6 days, CellTiter-Glo luminescence normalized to DMSO control (100%)
Note: state the figure and append the unit.

Take a look at these entries with their results.
# COMPOUND, REPORTED RESULT
records = [
    ("CN(C)CCCOc1ccc(-c2ncc(CNC(=O)c3ccc4c(c3Cl)NC(=O)c3ccccc3S4(=O)=O)s2)cc1", "99%"),
    ("Cl.NCCc1ccccc1-c1ncc(CNC(=O)c2ccc3c(c2)NC(=O)c2ccccc2S3(=O)=O)s1", "109%"),
    ("CCCN1c2ccc(C(=O)NCc3cnc(-c4ccc(C#N)cc4)s3)cc2NC(=O)c2ccccc21", "108%"),
]

Consider the record given below.
Query: What does the data say about its AD38 Viability Normalized Result (cmpd/DMSO %) at 10 μM? Entry: COC(=O)C1CCN(CCCOc2ccc(-c3ncc(CNC(=O)c4ccc5c(c4)NC(=O)c4ccccc4S5(=O)=O)s3)cc2)C1 (stereo not shown)
Result: 100%

---

tested on: AD38 cells; assay: Viability of AD38 cells (Promega CellTiter-Glo); format: cell-based; conditions: 10 μM compound, 6 days, CellTiter-Glo luminescence normalized to DMSO control (100%)
OBSERVED PROPERTY: AD38 Viability Normalized Result (cmpd/DMSO %) at 10 μM
Quick note: give the figure in %, leave out the unit.

# MOLECULE, TGT, REPORTED RESULT
records = [
    ("O=C(NCc1cnc(-c2ccc(OCCN3CCOCC3)cc2)s1)c1ccc2c(c1)NC(=O)c1ccccc1S2(=O)=O", "AD38 cells", 99),
    ("O=C(NCc1cnc(-c2ccc3cnccc3c2)s1)c1ccc2c(c1)NC(=O)c1ccccc1O2", "AD38 cells", 98),
    ("Cl.NCCNC(=O)c1ccc(-c2ncc(CNC(=O)c3ccc4c(c3)NC(=O)c3ccccc3S4(=O)=O)s2)cc1", "AD38 cells", 86),
    ("O=C1Nc2c(ccc(C(=O)NCc3cnc(C(F)(F)F)s3)c2Cl)S(=O)(=O)c2ccccc21", "AD38 cells", 95),
    ("Cc1c(C(=O)NCc2cnc(C(F)(F)F)s2)ccc2c1NC(=O)c1ccccc1O2", "AD38 cells", 84),
    ("O=C(NCc1cnc(N2CCCCC(O)C2)s1)c1ccc2c(c1)NC(=O)c1ccccc1S2(=O)=O (stereo not shown)", "AD38 cells", 94),
]

Consider the record given below.
Query: What does the data say about its AD38 Viability Normalized Result (cmpd/DMSO %) at 10 μM? Entry: `O=C(NCc1cnc(C(F)(F)F)s1)c1ccc2c(c1)NC(=O)c1ccccc1S2(=O)=O`
Result: 107

---

test system: AD38 cells; experiment: Viability of AD38 cells (Promega CellTiter-Glo); type: cell-based; details: 10 μM compound, 6 days, CellTiter-Glo luminescence normalized to DMSO control (100%)
Counter-ions that a name gives are not always drawn.
Each entry below carries its recorded AD38 Viability Normalized Result (cmpd/DMSO %) at 10 μM.
Quick note: give the figure in %, leave out the unit.

# MOLECULE, REPORTED RESULT
measured = [
    ("O=C(O)COc1ncc(CNC(=O)c2ccc3c(c2)NC(=O)c2ccccc2S3(=O)=O)s1", 102),
    ("Cl.NCCCSc1ccc(-c2ncc(CNC(=O)c3ccc4c(c3)NC(=O)c3ccccc3S4(=O)=O)s2)cc1", 101),
]

Query: What does the data say about its AD38 Viability Normalized Result (cmpd/DMSO %) at 10 μM? Entry: `O=C(NCc1cnc(-n2ccnn2)s1)c1ccc2c(c1)NC(=O)c1ccccc1S2(=O)=O`
Result: 96

Query: Next molecule: `N#Cc1ccc(-c2ncc(CNC(=O)c3ccc4c(c3)NC(=O)c3ccccc3S4(=O)=O)s2)c(Cl)c1`
Result: 82

Query: Next molecule: Nc1ccnc(-c2ncc(CNC(=O)c3ccc4c(c3)NC(=O)c3ccccc3S4(=O)=O)s2)c1 [compound 1888, TFA salt]
Result: 100

Query: Next molecule: `O=C(NCc1cnc(-n2cccn2)s1)c1ccc2c(c1)NC(=O)c1ccccc1S2(=O)=O`
Result: 106

Query: Next molecule: `O=C(NCc1cnc(-c2cc(F)c(O)c(F)c2)s1)c1ccc2c(c1)NC(=O)c1ccccc1O2`
Result: 94

---

tested on: AD38 cells; assay: Viability of AD38 cells (Promega CellTiter-Glo); format: cell-based; conditions: 10 μM compound, 6 days, CellTiter-Glo luminescence normalized to DMSO control (100%)
OBSERVED PROPERTY: AD38 Viability Normalized Result (cmpd/DMSO %) at 10 μM
Quick note: give the figure in %, leave out the unit.

Take a look at these entries with their results.
# COMPOUND, UNITS SYMBOL, REPORTED RESULT
measured = [
    ("Cc1cc(-c2ncc(CNC(=O)c3ccc4c(c3)NC(=O)c3ccccc3O4)s2)ccc1O [compound 1736]", "%", 94),
    ("CN(C)CCCOc1ccc(-c2ncc(CNC(=O)c3ccc4c(c3)NC(=O)c3ccccc3O4)s2)cc1 [compound 1698]", "%", 91),
    ("CC(CCN(C)C)Oc1ccc(-c2ncc(CNC(=O)c3ccc4c(c3)NC(=O)c3ccccc3S4(=O)=O)s2)cc1 (stereo not shown) [compound 11080]", "%", 84),
    ("O=C(NCc1cnc(C(=O)c2ccccc2)s1)c1ccc2c(c1)NC(=O)c1ccccc1S2(=O)=O [compound 1929]", "%", 93),
    ("Cl.O=C(NCc1cnc(-c2ccc(N3CCNCC3)cc2)s1)c1ccc2c(c1)NC(=O)c1ccccc1S2(=O)=O [compound 11018]", "%", 98),
    ("O=C(NCc1cnc(C(F)(F)F)s1)c1cc2c(cc1C(F)(F)F)S(=O)(=O)c1ccccc1C(=O)N2 [compound 1936]", "%", 94),
]

Consider the record given below.
Query: What does the data say about its AD38 Viability Normalized Result (cmpd/DMSO %) at 10 μM? Entry: CN(C)c1ncc(CNC(=O)c2ccc3c(c2)NC(=O)c2ccccc2S3)s1 [compound 1425]
Result: 100

---

test system: AD38 cells; assay: Viability of AD38 cells (Promega CellTiter-Glo); format: cell-based; settings: 10 μM compound, 6 days, CellTiter-Glo luminescence normalized to DMSO control (100%)
OBSERVED PROPERTY: AD38 Viability Normalized Result (cmpd/DMSO %) at 10 μM
Quick note: give the figure in %, leave out the unit.

# MOLECULE, TGT, UNITS SYMBOL, REPORTED RESULT
data = [
    ("CCN(CC)CCC(C)Oc1ccc(-c2ncc(CNC(=O)c3ccc4c(c3)NC(=O)c3ccccc3S4(=O)=O)s2)cc1 (stereo not drawn)", "AD38 cells", "%", 85),
    ("Cc1c(C(=O)NCc2cnc(C(F)(F)F)s2)cc(Br)c2c1NC(=O)c1ccccc1S2", "AD38 cells", "%", 77),
    ("CC(=O)NCCCCc1ccc(-c2ncc(CNC(=O)c3ccc4c(c3)NC(=O)c3ccccc3S4(=O)=O)s2)cc1", "AD38 cells", "%", 101),
    ("CN(C)CCSc1ncc(CNC(=O)c2ccc3c(c2)NC(=O)c2ccccc2O3)s1", "AD38 cells", "%", 101),
]

Query: What does the data say about its AD38 Viability Normalized Result (cmpd/DMSO %) at 10 μM? Entry: `O=C(NCc1cnc(-c2cscn2)s1)c1ccc2c(c1)NC(=O)c1ccccc1S2(=O)=O`
Result: 89

Query: Next molecule: `O=C(NCc1cnc(-c2ccc(SCCCO)cc2)s1)c1ccc2c(c1)NC(=O)c1ccccc1S2(=O)=O`
Result: 104

Query: Next molecule: `O=C(NCc1cnc(-c2ccc(OCCCN3CCCCC3)cc2)s1)c1ccc2c(c1)NC(=O)c1ccccc1S2(=O)=O`
Result: 89

Query: Next molecule: `O=C1Nc2c(cc(F)c(C(=O)NCc3cnc(-c4ccc(O)cc4)s3)c2F)Sc2ccccc21`
Result: 107

Query: Next molecule: `COc1ccc(-c2ncc(CNC(=O)c3ccc4c(c3)NC(=O)c3ccccc3S4)s2)cc1`
Result: 91

Ref: patent US11814376B2
